Where do these numbers come from? They come from PubChem BioAssay AID602427.

Target: Neurotensin receptor type 1 (Homo sapiens) (UniProt P30989)
Sequence (P30989 whole entry, looked up): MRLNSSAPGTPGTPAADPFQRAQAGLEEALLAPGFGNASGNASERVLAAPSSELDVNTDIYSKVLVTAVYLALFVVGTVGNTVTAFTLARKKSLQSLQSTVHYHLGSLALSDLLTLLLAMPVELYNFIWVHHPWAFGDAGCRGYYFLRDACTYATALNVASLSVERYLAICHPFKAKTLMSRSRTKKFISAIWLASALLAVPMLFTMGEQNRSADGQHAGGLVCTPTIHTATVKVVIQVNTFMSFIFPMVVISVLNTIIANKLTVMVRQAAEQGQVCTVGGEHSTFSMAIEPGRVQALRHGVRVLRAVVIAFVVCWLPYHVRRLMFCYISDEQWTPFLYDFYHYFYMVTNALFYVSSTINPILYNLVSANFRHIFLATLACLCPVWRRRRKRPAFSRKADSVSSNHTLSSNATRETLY
Test: NTR1 agonists, beta-arrestin recruitment, SAR follow-up, orthogonal assay for NTR1 agonist project, cell-based, luminescence, CHO-K1 NTSR1 PathHunter (AID 602427);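 also: agonist potency for NTR1 activation where higher luminescence means more arrestin recruitment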
Active and inactive are the calls of the source.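 The calls were made as follows: active = EC50 at or below 20 micromolar; inactive = the rest.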
Thanks in advance; please answer with one of these: active, inactive

compound=COc1ccccc1N1CCN(c2ncnc3c2cnn3-c2ccc(C)cc2C)CC1 label_class=inactive
compound=COc1cc2c3nnc(-c4ccc(F)cc4)c-3cn(Cc3ccc(N(C)C)cc3)c2cc1OC label_class=inactive
compound=Cc1ccc(-n2ncc3c(N4CCN(c5ccccc5F)CC4)ncnc32)c(C)c1 label_class=inactive
compound=COc1ccc(Cn2cc(C(=O)c3ccc(F)cc3)c(=O)c3cc(OC)c(OC)cc32)cc1 label_class=inactive
compound=O=S(=O)(c1ccc(-c2csc(N/N=C/c3ccco3)n2)cc1)N1CCOCC1 label_class=inactive

Lookup: Tell me the assay call for COc1cccc(OC)c1-c1nc(C(=O)NC2(C(=O)O)C3CC4CC(C3)CC2C4)cn1-c1ccnc2cc(Cl)ccc12 (centres undefined) please.
Found: inactive

Lookup: Tell me the assay call for COc1cccc(OC)c1-c1nc(C(=O)O)cn1-c1ccncc1 please.
Found: inactive

Lookup: Tell me the assay call for COc1cc2c3nnc(-c4ccc(F)cc4)c-3cn(CCc3ccccc3)c2cc1OC please.
Found: inactive

Lookup: Tell me the assay call for CCCSc1nc2cc(OC)c(OC)cc2c(=N)n1Cc1cccc(C(F)(F)F)c1 please.
Found: inactive

Lookup: Tell me the assay call for COc1cc2c3nnc(-c4ccc(C)cc4)c-3cn(Cc3ccccc3)c2cc1OC please.
Found: inactive

Lookup: Tell me the assay call for CCc1ccc(-c2nnc3c4cc(OC)c(OC)cc4n(Cc4ccc(F)cc4)cc2-3)cc1 please.
Found: inactive

Lookup: Tell me the assay call for COc1cccc(N2CCN(c3ncnc4c3cnn4-c3ccc(C)cc3C)CC2)c1 please.
Found: inactive

Lookup: Tell me the assay call for COc1cc2c(=O)c(C(=O)c3ccc(F)cc3)cn(Cc3ccc(N(C)C)cc3)c2cc1OC please.
Found: inactive

Lookup: Tell me the assay call for CC(C)C[C@H](NC(=O)c1nc(-c2ccnc3ccccc23)c(-c2ccccc2)s1)C(=O)O please.
Found: inactive

Lookup: Tell me the assay call for Cc1ccc(-n2ncc3c(N4CCN(c5cccc(Cl)c5)CC4)ncnc32)c(C)c1 please.
Found: inactive

Lookup: Tell me the assay call for COc1ccc2c3nnc(-c4ccc(C)cc4)c-3cn(Cc3ccc(C)cc3)c2c1 please.
Found: inactive

Lookup: Tell me the assay call for COc1cc2nc(C)nc(N3CCN(c4ccccc4OC)CC3)c2cc1OC please.
Found: inactive

Lookup: Tell me the assay call for COc1ccc(C(=O)c2cn(Cc3ccc(N(C)C)cc3)c3ccccc3c2=O)cc1 please.
Found: inactive

Lookup: Tell me the assay call for COc1cc2c(=O)c(C(=O)c3ccc(F)cc3)cn(Cc3ccc(OC(F)(F)F)cc3)c2cc1OC please.
Found: inactive

Lookup: Tell me the assay call for Cc1ccc(Cn2cc3c(-c4ccc(C)cc4)nnc-3c3cc4c(cc32)OCO4)cc1 please.
Found: inactive

Lookup: Tell me the assay call for COc1ccc2nc(C3CCC3)nc(N3CCN(c4ccccc4OC)CC3)c2c1 please.
Found: inactive

Lookup: Tell me the assay call for COc1cc2nc(C3CCC3)nc(N3CCN(c4ccccc4F)CC3)c2cc1OC please.
Found: inactive

---

Target: Neurotensin receptor type 1 (Homo sapiens)
Assay: NTR1 agonists, beta-arrestin recruitment, SAR follow-up, orthogonal assay for NTR1 agonist project, cell-based, luminescence, CHO-K1 NTSR1 PathHunter (AID 602427)
Calls of active or inactive are those of the source.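 Rule for the calls: active = EC50 at or below 20 micromolar; inactive = the rest.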
reported_property: EC50

// known answers, use as guide
compound=COc1ccc(-c2nnc3c4ccccc4n(Cc4ccncc4)cc2-3)cc1 reported_property=EC50 observed_value="> 33 µM (inactive)"
compound=COc1ccc(/C=N/Nc2nc(-c3ccc(S(=O)(=O)N(C)C)cc3)cs2)cc1OC reported_property=EC50 observed_value="> 33 µM (inactive)"
compound=COc1cc2c3nnc(-c4ccc(F)cc4)c-3cn(Cc3ccccc3N(C)C)c2cc1OC reported_property=EC50 observed_value="> 33 µM (inactive)"
compound=COc1cc2c3nnc(-c4ccc(F)cc4)c-3cn(Cc3ccccc3)c2cc1OC reported_property=EC50 observed_value=inactive
compound=COc1cc2ncnc(N3CCN(c4ccccc4OC)CC3)c2cc1OC reported_property=EC50 observed_value="> 33 µM (inactive)"

Lookup: Give its EC50 value. Item: COc1ccc2c(N3CCN(c4ccccc4OC)CC3)nc(C3CCC3)nc2c1
Found: > 33 µM (inactive)

Lookup: Give its EC50 value. Item: Cc1cc(Cl)ccc1-n1ncc2c(N3CCN(c4ccccc4)CC3)ncnc21
Found: > 33 µM (inactive)

Lookup: Give its EC50 value. Item: COc1cc2nc(C3CCC3)nc(N3CCN(c4ccccc4)CC3)c2cc1OC
Found: > 33 µM (inactive)

Lookup: Give its EC50 value. Item: COc1ccc(-c2nnc3c4cc(OC)c(OC)cc4n(Cc4ccc(C)cc4)cc2-3)cc1
Found: 15.5 µM

Lookup: Give its EC50 value. Item: Cc1ccc(-n2ncc3c(N4CCN(c5ccc(Cl)c(Cl)c5)CC4)ncnc32)c(C)c1
Found: > 33 µM (inactive)

Lookup: Give its EC50 value. Item: COc1ccc(Cn2c(SCc3ccccc3)nc3cc(OC)c(OC)cc3c2=N)cc1Cl
Found: > 33 µM (inactive)

Lookup: Give its EC50 value. Item: COc1cc2c3nnc(-c4ccc(C)cc4)c-3cn(Cc3ccc(F)cc3)c2cc1OC
Found: inactive

Lookup: Give its EC50 value. Item: Fc1ccc(Cn2cc3c(-c4ccc(F)cc4)nnc-3c3cc4c(cc32)OCO4)cc1
Found: > 33 µM (inactive)

Lookup: Give its EC50 value. Item: Cc1ccc(-n2ncc3c(N4CCN(c5ccccc5)CC4)ncnc32)cc1
Found: > 33 µM (inactive)

---

Target: UniProtKB P30989
Experiment: NTR1 agonists, beta-arrestin recruitment, SAR follow-up, orthogonal assay for NTR1 agonist project, cell-based, luminescence, CHO-K1 NTSR1 PathHunter (AID 602427);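 also: agonist potency for NTR1 activation where higher luminescence means more arrestin recruitment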
The source made the active and inactive calls.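 The calls were made as follows: active = EC50 at or below 20 micromolar; inactive = the rest.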
Thanks in advance; please answer with one of these: active, inactive

Lookup: Tell me the assay call for COc1cc2nc(SCc3ccncc3)n(Cc3cccc(C(F)(F)F)c3)c(=N)c2cc1OC please.
Found: inactive

Lookup: Tell me the assay call for COc1cc2c3nnc(-c4ccc(F)cc4)c-3cn(Cc3cccc(N(C)C)c3)c2cc1OC please.
Found: inactive

Lookup: Tell me the assay call for O=S(=O)(c1ccc(-c2csc(N/N=C/c3ccco3)n2)cc1)N1CCCC1 please.
Found: inactive

Lookup: Tell me the assay call for Fc1ccc(Cn2cc3c(-c4ccc(Cl)cc4)nnc-3c3cc4c(cc32)OCO4)cc1 please.
Found: inactive

Lookup: Tell me the assay call for Fc1ccc(-c2nnc3c4cc5c(cc4n(Cc4ccccc4)cc2-3)OCO5)cc1 please.
Found: inactive

Lookup: Tell me the assay call for COc1cc2c(=O)c(C(=O)c3ccc(F)cc3)cn(Cc3ccc(Cl)cc3)c2cc1OC please.
Found: inactive

Lookup: Tell me the assay call for Cc1ccc(-n2ncc3c(N4CCN(c5ccccc5Cl)CC4)ncnc32)c(C)c1 please.
Found: inactive

Lookup: Tell me the assay call for COc1cccc(OC)c1-c1nc(C(=O)N[C@@H](CC(C)C)C(=O)O)cn1-c1ccnc2cc(Cl)ccc12 please.
Found: active

---

Molecular target: Neurotensin receptor type 1 (Homo sapiens) (UniProt P30989)
Assay: NTR1 agonists, beta-arrestin recruitment, SAR follow-up, orthogonal assay for NTR1 agonist project, cell-based, luminescence, CHO-K1 NTSR1 PathHunter (AID 602427);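 also: agonist potency for NTR1 activation where higher luminescence means more arrestin recruitment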
Activity calls are given as the source filed them.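 How the source made its calls: active means EC50 at or below 20 micromolar; inactive means the rest.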
Thanks in advance; please answer with one of these: active, inactive

Lookup: Tell me the assay call for CC(C)C[C@H](NC(=O)c1nc(-c2ccncc2)c(-c2ccccc2)s1)C(=O)O please.
Found: inactive

Lookup: Tell me the assay call for COc1cc2c3nnc(-c4ccc(F)cc4)c-3cn(Cc3ccc(Cl)cc3)c2cc1OC please.
Found: inactive

Lookup: Tell me the assay call for CC(=O)c1ccc(N2CCN(c3ncnc4c3cnn4-c3ccc(C)cc3C)CC2)cc1 please.
Found: inactive

---

Molecular target: Neurotensin receptor type 1 (Homo sapiens)
Experiment: NTR1 agonists, beta-arrestin recruitment, SAR follow-up, orthogonal assay for NTR1 agonist project, cell-based, luminescence, CHO-K1 NTSR1 PathHunter (AID 602427);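 also: agonist potency for NTR1 activation where higher luminescence means more arrestin recruitment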
Calls of active or inactive are those of the source.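 How the source made its calls: active means EC50 at or below 20 micromolar; inactive means the rest.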
Thanks in advance; please answer with one of these: 1.0 (active), 0.0 (inactive)

Solved cases (5 shown):
compound=COc1cc2c3nnc(-c4ccc(C)c(C)c4)c-3cn(Cc3ccc(F)cc3)c2cc1OC label_class=0.0
compound=COc1ccccc1-c1nc(C(=O)N[C@@H](CC(C)C)C(=O)O)cn1-c1ccnc2ccccc12 label_class=0.0
compound=CCOc1ccc(-c2nnc3c4cc(OC)c(OC)cc4n(Cc4ccc(F)cc4)cc2-3)cc1 label_class=0.0
compound=COc1cc2nc(-c3ccccc3)nc(N3CCN(c4ccccc4)CC3)c2cc1OC label_class=0.0
compound=COc1cc2nc(C3CC3)nc(N3CCN(c4ccccc4OC)CC3)c2cc1OC label_class=1.0

Lookup: Tell me the assay call for COc1cc2c3nnc(-c4ccc(F)cc4)c-3cn(Cc3ccccn3)c2cc1OC please.
Found: 0.0
